test system: Zymoseptoria tritici field and genetically modified strains; assay: Liquid culture assay for fungicide sensitivity determination; type: cell-based; details: strain 09STF112; liquid culture sensitivity; read-out: EC50 (nM) Mean
metric: EC50 (nM)
Write the answer as a number in nM, unit excluded.

Solved cases below.
compound	metric	units_of_measure	observed_result
Cn1cc(C(=O)Nc2ccccc2-c2cc(F)c(F)c(F)c2)c(C(F)F)n1	EC50	nM	152
Cn1cc(C(=O)Nc2ccc(F)cc2-c2ccc(Cl)c(Cl)c2)c(C(F)F)n1	EC50	nM	171
CC(C)C1C2CCC1c1c(NC(=O)c3cn(C)nc3C(F)F)cccc12 (stereo not shown)	EC50	nM	66.2

Alright, here's another compound for you.
Exercise: Quick one: EC50 for Cn1cc(C(=O)Nc2cccc3c2[C@@H]2CC[C@H]3C2=C(Cl)Cl)c(C(F)F)n1 (racemic) ?
Solution: 204

====

System: Zymoseptoria tritici field and genetically modified strains
Experiment: Liquid culture assay for fungicide sensitivity determination
Assay type: cell-based
Settings: Zymoseptoria tritici, read-out: EC50 (nM) Mean, strain KO_SDHC1_T1; liquid culture sensitivity
Method: Sensitivity towards commercial fungicides was determined for a set of 99 SHA-SDHI-naïve Z. tritici field isolates sampled in Europe between 2006 and 2009. The EC50 of these isolates was determined in liquid growth assays and the data obtained compared for each possible pair of SDHI fungicides (cross-resistance (XR) plots, Fig 1). […]
metric: EC50

Would you please look over these solved cases?
compound	EC50
C[C@@H](Cc1ccc(Cl)cc1Cl)NC(=O)c1cn(C)nc1C(F)F [Compound 2]	10400 nM
O=C(Nc1ccccc1-c1ccc(Cl)cc1)c1cccnc1Cl [Boscalid]	2160 nM
Cn1cc(C(=O)NCCc2ccc(Cl)cc2Cl)c(C(F)F)n1 [Compound 1]	125000 nM

Exercise: Lab request: please report EC50 under test system Zymoseptoria tritici field and genetically modified strains for O=C(NCCc1ncc(C(F)(F)F)cc1Cl)c1ccccc1C(F)(F)F [Fluopyram]
Solution: 25600 nM

Exercise: Return EC50 measured with Zymoseptoria tritici field and genetically modified strains given this compound: CC1=C(C(=O)Nc2ccccc2)SCCO1 [Carboxin]
Solution: 10400 nM

Exercise: EC50 of CON(C(=O)c1cn(C)nc1C(F)F)[C@@H](C)Cc1c(Cl)cc(Cl)cc1Cl [Pydiflumetofen] on Zymoseptoria tritici field and genetically modified strains?
Solution: 377 nM

====

biological target: WT-SQR (SDHC), IPO323 mitochondria (Zymoseptoria tritici, UniProt F9X9V6+F9XH52+O42772); test: Succinate-quinone (SQR) SDHI sensitivity assay on purified mitochondria, IPO323; assay type: biochemical
Sequence (F9WWR1 entry or part of it): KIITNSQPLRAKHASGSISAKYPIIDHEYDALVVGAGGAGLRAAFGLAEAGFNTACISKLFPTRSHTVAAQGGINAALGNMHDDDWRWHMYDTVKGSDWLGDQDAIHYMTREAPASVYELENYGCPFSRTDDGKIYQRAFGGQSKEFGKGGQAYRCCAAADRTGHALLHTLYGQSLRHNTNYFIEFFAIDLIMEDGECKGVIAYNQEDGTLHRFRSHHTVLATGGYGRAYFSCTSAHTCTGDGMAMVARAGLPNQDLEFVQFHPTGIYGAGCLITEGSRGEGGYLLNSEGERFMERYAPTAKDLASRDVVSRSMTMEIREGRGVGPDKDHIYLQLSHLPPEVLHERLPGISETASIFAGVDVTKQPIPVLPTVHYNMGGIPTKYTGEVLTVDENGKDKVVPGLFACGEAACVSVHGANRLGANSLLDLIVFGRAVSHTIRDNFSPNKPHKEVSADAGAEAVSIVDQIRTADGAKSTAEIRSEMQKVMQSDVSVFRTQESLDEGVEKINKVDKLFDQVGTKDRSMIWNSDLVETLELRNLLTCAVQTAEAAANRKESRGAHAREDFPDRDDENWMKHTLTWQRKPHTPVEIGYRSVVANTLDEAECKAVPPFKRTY
Sequence (F9X9V6 entry or part of it): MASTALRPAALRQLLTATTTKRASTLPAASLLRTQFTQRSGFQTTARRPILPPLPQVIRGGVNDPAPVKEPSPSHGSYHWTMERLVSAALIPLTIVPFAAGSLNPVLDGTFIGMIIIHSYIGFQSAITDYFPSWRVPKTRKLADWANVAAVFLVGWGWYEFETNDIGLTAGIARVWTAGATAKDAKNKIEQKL
Sequence (O42772 19-297): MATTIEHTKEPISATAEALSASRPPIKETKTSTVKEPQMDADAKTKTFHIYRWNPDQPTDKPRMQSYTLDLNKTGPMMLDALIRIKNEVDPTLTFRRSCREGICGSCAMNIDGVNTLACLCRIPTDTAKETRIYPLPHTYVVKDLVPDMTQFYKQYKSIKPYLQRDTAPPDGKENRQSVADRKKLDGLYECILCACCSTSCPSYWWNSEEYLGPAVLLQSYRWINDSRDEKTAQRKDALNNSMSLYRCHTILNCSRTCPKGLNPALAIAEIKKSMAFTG
Sequence (F9XH52 entry or part of it): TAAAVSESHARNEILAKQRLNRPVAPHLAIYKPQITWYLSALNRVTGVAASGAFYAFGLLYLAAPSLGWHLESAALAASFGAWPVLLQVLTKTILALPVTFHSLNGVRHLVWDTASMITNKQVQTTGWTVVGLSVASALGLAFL
pIC50: −log10 of the molar value.
Label scheme for pIC50: lower than 9 is condition not met, 9 and above is condition met.

Study these solved cases before continuing.
chemical_string	label
O=C(Nc1ccccc1-c1ccc(Cl)cc1)c1cccnc1Cl	condition not met
O=C(NCCc1ncc(C(F)(F)F)cc1Cl)c1ccccc1C(F)(F)F	condition not met
C[C@@H](Cc1ccc(Cl)cc1Cl)NC(=O)c1cn(C)nc1C(F)F	condition not met

Exercise: Does the reported pIC50 for CON(C(=O)c1cn(C)nc1C(F)F)[C@@H](C)Cc1c(Cl)cc(Cl)cc1Cl fall at or above the 9 mark?
Solution: condition met

Exercise: Item CC1=C(C(=O)Nc2ccccc2)SCCO1 with pIC50 of 9 or above?
Solution: condition not met

Exercise: Does pIC50 meet or surpass 9 for Cn1cc(C(=O)NCCc2ccc(Cl)cc2Cl)c(C(F)F)n1 ?
Solution: condition not met
